Target: Dimer of Gag-Pol polyprotein [501-599,Q508K,L534I,L564I,C568A,C596A] (Human immunodeficiency virus 1, UniProt P03367, C568A/C596A/L534I/L564I/Q508K)
Construct: 501-599
Assay: Protease Inhibition Assay
Conditions: pH 6.4; 25 °C
Each entry below carries its recorded Ki.

Guide cases for Ki, answers given:
C=CCCCCCCCCOC(=O)N(CC=C)C[C@@H](O)[C@H](Cc1ccccc1)NC(=O)O[C@H]1CO[C@H]2OCC[C@H]21
> 1000 nM
C=CCCCCCCCC(OC(=O)N(CC=C)C[C@@H](O)[C@H](Cc1ccccc1)NC(=O)O[C@H]1CO[C@H]2OCC[C@H]21)c1ccccc1 (some centres undefined)
> 1000 nM
C=CCCCCCCCCN(C[C@@H](O)[C@H](Cc1ccccc1)NC(=O)O[C@H]1CO[C@H]2OCC[C@H]21)C(=O)OCCC=C
> 1000 nM

Please look at the following compound next.
Could you tell me which Ki is on file for `CC(C)(C)NC(=O)[C@@H]1C[C@@H]2CCCC[C@@H]2CN1C[C@@H](O)[C@H](Cc1ccccc1)NC(=O)O[C@H]1CO[C@H]2OCC[C@H]21` ?
2 nM

====

Each entry below carries its recorded pKi.
Biological target: Dimer of Gag-Pol polyprotein [501-599,Q508K,L534I,L564I,C568A,C596A] (Human immunodeficiency virus 1, UniProt P03367, C568A/C596A/L534I/L564I/Q508K)
Construct: 501-599
Test: Protease Inhibition Assay
Conditions: pH 6.4; 25 °C
Protocol: The Ki values were determined using fluorogenic substrate, 2-(aminobenzoyl)-Thr-Ile-Nle-Phe(p-NO2)-Gln-ArgNH2. A standard curve relating changes in fluorescent intensity to changes in concentration of product was used to convert fluorescent changes into molar velocities. The amount of cleavage was determined by HPLC.
Just the number, please; pKi means minus log10 of the concentration in mol/L.

Guide cases for pKi, answers given:
O=C(N[C@@H](Cc1ccccc1)[C@H](O)CN1C/C=C\CCCCCCCCOC1=O)O[C@H]1CO[C@H]2OCC[C@H]21
6.90
CC1CCCCCCCCCCCOC(=O)N1C[C@@H](O)[C@H](Cc1ccccc1)NC(=O)O[C@H]1CO[C@H]2OCC[C@H]21 (some centres undefined)
7.52

Could you tell me which pKi is on file for `O=C(N[C@@H](Cc1ccccc1)[C@H](O)CN1CCCCCCCCCCCCOC1=O)O[C@H]1CO[C@H]2OCC[C@H]21` ?
7.85

Check O=C(N[C@@H](Cc1ccccc1)[C@H](O)CN1CCCCC=CCCCCCCC(c2ccccc2)OC1=O)O[C@H]1CO[C@H]2OCC[C@H]21 (some centres undefined) too.
6.79

Check CC1CC=CCCCCCCCCOC(=O)N1C[C@@H](O)[C@H](Cc1ccccc1)NC(=O)O[C@H]1CO[C@H]2OCC[C@H]21 (some centres undefined) too.
7.28

Check O=C(N[C@@H](Cc1ccccc1)[C@H](O)CN1CCCCCCCCCCC(c2ccccc2)OC1=O)O[C@H]1CO[C@H]2OCC[C@H]21 (some centres undefined) too.
6.72

Check O=C(N[C@@H](Cc1ccccc1)[C@H](O)CN1CCCCCCCCC=CCC(c2ccccc2)OC1=O)O[C@H]1CO[C@H]2OCC[C@H]21 (some centres undefined) too.
6.78

Check C=CCCCCCCC(OC(=O)N(CCCCC=C)C[C@@H](O)[C@H](Cc1ccccc1)NC(=O)O[C@H]1CO[C@H]2OCC[C@H]21)c1ccccc1 (some centres undefined) too.
6.35

Check O=C(N[C@@H](Cc1ccccc1)[C@H](O)CN1CCCCCCCCCCCC(c2ccccc2)OC1=O)O[C@H]1CO[C@H]2OCC[C@H]21 (some centres undefined) too.
6.45

Check CC1CC=CCCCCCCCOC(=O)N(C[C@@H](O)[C@H](Cc2ccccc2)NC(=O)O[C@H]2CO[C@H]3OCC[C@H]32)C1 (some centres undefined) too.
7.96

Check O=C(N[C@@H](Cc1ccccc1)[C@H](O)CN1C/C=C\CCCCCCCC(c2ccccc2)OC1=O)O[C@H]1CO[C@H]2OCC[C@H]21 (some centres undefined) too.
6.64

====

Molecular target: Dimer of Gag-Pol polyprotein [501-599,Q508K,L534I,L564I,C568A,C596A] (Human immunodeficiency virus 1, UniProt P03367, C568A/C596A/L534I/L564I/Q508K)
Construct: 501-599
Experiment: Protease Inhibition Assay
Conditions: pH 6.4; 25 °C
ASSAY_READOUT: Ki

Guide cases for Ki, answers given:
C=CCCCCCCCCN(C[C@@H](O)[C@H](Cc1ccccc1)NC(=O)O[C@H]1CO[C@H]2OCC[C@H]21)C(=O)OC(CC=C)c1ccccc1 (stereo partly drawn)
> 1000 nM
C=CCCCCCCCOC(=O)N(CC(C)CC=C)C[C@@H](O)[C@H](Cc1ccccc1)NC(=O)O[C@H]1CO[C@H]2OCC[C@H]21 (stereo partly drawn)
> 1000 nM

Could you tell me which Ki is on file for C=CCCCCCCCCOC(=O)N(C[C@@H](O)[C@H](Cc1ccccc1)NC(=O)O[C@H]1CO[C@H]2OCC[C@H]21)C(C)CC=C (stereo partly drawn) ?
> 1000 nM
